- Target: T1, hu N(A2-B2)A-avi-His (human, biotin on the avi tag where used biotinylated)
- T1 construct: chimeric soluble antigen; also called hu N(A2-B2)A-avi-His B; human CEA (A2 domain)
- T1 chain: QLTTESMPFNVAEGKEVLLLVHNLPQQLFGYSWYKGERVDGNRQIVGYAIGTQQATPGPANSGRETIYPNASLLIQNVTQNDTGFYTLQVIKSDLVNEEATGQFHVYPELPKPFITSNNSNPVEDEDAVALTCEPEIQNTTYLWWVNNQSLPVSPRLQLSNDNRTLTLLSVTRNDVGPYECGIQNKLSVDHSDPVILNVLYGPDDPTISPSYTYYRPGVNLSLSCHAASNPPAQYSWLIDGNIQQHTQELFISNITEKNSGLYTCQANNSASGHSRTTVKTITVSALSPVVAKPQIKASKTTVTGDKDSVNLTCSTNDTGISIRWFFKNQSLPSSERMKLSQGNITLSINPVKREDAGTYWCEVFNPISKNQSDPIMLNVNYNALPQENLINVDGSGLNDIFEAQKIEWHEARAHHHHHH
- Measurement Description: SPR (ProteOn XPR36), purified Fab, biotinylated antigen on NLC chip
Quick list: Kd per entry.
State just the number; it will be interpreted in nM.

Study these solved cases before continuing.
P005.097 Fab (Fab, V domains shown, Fab from E. coli (supernatant or IMAC-purified); Flag tag; also called CEA (P005.097)) VH: EVQLLESGGGLVQPGGSLRLSCAASGFTFTDYYMNWVRQAPGKGLEWLGFIGNKANAYTTEYSASVKGRFTISRDKSKNTLYLQMNSLRAEDTATYYCTRDRGLRFSFDYWGQGTTVTVSS VL: EIVLTQSPATLSLSPGERATLSCRASSSVTYIHWYQQKPGQAPRSWIYATSNLASGIPARFSGSGSGTDFTLTISSLEPEDFAVYYCQHWSSQPPTFGQGTKLEIK ... 0.91
P005.102 Fab (Fab, V domains shown, Fab from E. coli (supernatant or IMAC-purified); Flag tag; also called CEA (P005.102)) VH: EVQLLESGGGLVQPGGSLRLSCAASGFTFTDYYMNWVRQAPGKGLEWLGFIGNKANAYTTEYSASVKGRFTISRDKSKNTLYLQMNSLRAEDTATYYCTRDRGIRFQFDYWGQGTTVTVSS VL: EIVLTQSPATLSLSPGERATLSCRASSSVTYIHWYQQKPGQAPRSWIYATSNLASGIPARFSGSGSGTDFTLTISSLEPEDFAVYYCQHWSSKSPTFGQGTKLEIK ... 0.29

Shift focus to the following entry.
stdin: Which Kd value is on record for P002.139 Fab (Fab, V domains shown, Fab from E. coli (supernatant or IMAC-purified); Flag tag; also called CEA (P002.139)) VH: EVQLLESGGGLVQPGGSLRLSCAASGFYFTDYAMNWVRQAPGKGLEWLGVISNKANAYTTEYSASVKGRFTISRDKSKNTLYLQMNSLRAEDTATYYCTRDRGLRFYFDYWGQGTTVTVSS VL: EIVLTQSPATLSLSPGERATLSCHASSSVTYIHWYQQKPGQAPRSWIYATSNLASGIPARFSGSGSGTDFTLTISSLEPEDFAVYYCQHWSSKPPTFGQGTKLEIK ?
stdout: 0.63
